system: bovine brain tubulin; assay: Tubulin polymerization inhibition; format: biochemical; conditions: 33 μM compound, 10 μM tubulin
Readout Label: Polymerization Inhibition (%) 33 μM
// note: answer is a bare numeric in %

Request the reported Polymerization Inhibition (%) 33 μM associated with "COc1cc(C)c(-c2ccc(OC)c(=O)cc2)c(OC)c1OC" 100

Request the reported Polymerization Inhibition (%) 33 μM associated with COc1cc(C)c(-c2ccc(OC)c(=O)cc2C)c(OC)c1OC (single isomer, unassigned) [(aR)-6] 100

Request the reported Polymerization Inhibition (%) 33 μM associated with "COc1ccc(-c2ccc(OC)c(=O)cc2C)c(OC)c1OC" 100

Request the reported Polymerization Inhibition (%) 33 μM associated with COc1cc(C)c(-c2ccc(=O)c(OC)cc2C)c(OC)c1OC (single isomer, unassigned) [(aS)-iso-6] 0

Request the reported Polymerization Inhibition (%) 33 μM associated with COc1cc(C)c(-c2ccc(=O)c(OC)cc2C)c(OC)c1OC (single isomer, unassigned) [(aR)-iso-6] 0

Request the reported Polymerization Inhibition (%) 33 μM associated with "COc1ccc(-c2ccc(=O)c(OC)cc2C)c(OC)c1OC" 0

Request the reported Polymerization Inhibition (%) 33 μM associated with COc1cc(C)c(-c2ccc(OC)c(=O)cc2C)c(OC)c1OC (single isomer, unassigned) [(aS)-6] 0

Request the reported Polymerization Inhibition (%) 33 μM associated with COc1ccc(-c2ccc(OC)c(=O)cc2)c(OC)c1OC [compound 3, reference compound] 100
